- Assay target: T1, human c-Met ECD-Fc-Flis (human)
- T1 construct: c-Met ECD fused to Fc with flag- and His-tag at the C-terminus; also called human c-Met extracellular domain (ECD)-Fc-Flis fusion; human c-Met-Flis-Fc ECD
- T1 sequence (chain, as listed by the source): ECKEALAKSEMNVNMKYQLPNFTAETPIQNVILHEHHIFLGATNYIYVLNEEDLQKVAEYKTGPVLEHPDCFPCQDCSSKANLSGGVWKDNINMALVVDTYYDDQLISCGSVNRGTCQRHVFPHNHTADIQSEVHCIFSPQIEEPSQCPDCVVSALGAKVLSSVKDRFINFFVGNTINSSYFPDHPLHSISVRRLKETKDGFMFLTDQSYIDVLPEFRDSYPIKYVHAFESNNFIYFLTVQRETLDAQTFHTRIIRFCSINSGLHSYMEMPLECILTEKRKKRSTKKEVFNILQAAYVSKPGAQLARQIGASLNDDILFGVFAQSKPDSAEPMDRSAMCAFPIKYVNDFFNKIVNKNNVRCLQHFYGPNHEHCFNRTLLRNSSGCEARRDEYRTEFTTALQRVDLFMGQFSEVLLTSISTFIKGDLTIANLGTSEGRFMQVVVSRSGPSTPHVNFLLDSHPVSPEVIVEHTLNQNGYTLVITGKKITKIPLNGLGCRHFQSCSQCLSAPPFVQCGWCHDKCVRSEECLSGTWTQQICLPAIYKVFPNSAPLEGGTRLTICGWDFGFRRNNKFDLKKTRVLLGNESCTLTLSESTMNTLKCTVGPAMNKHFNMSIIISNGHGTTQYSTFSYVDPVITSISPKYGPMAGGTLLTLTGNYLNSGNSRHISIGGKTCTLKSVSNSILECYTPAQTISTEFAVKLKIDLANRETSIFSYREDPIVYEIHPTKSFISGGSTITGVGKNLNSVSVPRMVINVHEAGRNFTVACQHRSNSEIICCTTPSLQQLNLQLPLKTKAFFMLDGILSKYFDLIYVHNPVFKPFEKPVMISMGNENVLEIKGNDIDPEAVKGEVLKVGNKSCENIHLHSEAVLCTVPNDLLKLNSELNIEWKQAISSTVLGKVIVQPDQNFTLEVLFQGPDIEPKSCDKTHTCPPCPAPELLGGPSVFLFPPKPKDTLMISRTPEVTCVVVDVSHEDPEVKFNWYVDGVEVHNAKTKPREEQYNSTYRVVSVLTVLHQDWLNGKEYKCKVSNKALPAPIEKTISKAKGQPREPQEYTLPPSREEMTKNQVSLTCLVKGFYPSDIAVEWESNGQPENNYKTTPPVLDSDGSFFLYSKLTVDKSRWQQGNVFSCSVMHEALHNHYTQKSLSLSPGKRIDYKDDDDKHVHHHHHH
- Measurement notes: HGF-blocking ELISA: HGF signal on coated c-Met ECD-Fc-Flis; Ab 30.52 ng/mL
Quantity measured: AVG A450 nm (A450 nm)

# Binder, Output unit, Experimental result
rows = [
    ("D11-8B8 (antibody, human IgG2, kappa, V domains shown, Human engineered IgG2 kappa c-Met antibody; also called Mab D11-8B8; D11-8B8 IgG2) VH: QVQLVQSGAEVKKPGSSVKVSCKASGYTFTSRYIHWVRQAPGQGLEWMGWIYPVTGDTYYIEKFKGRVTITADKSTSTAYMELSSLRSEDTAVYYCARGYGAFFYWGQGTLVTVSS VL: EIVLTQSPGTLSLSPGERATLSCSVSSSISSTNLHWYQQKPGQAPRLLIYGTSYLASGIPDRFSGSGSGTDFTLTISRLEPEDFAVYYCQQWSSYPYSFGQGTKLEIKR", "A450 nm", 2.32),
    ("D11-C27G3 (antibody, human IgG2, kappa, V domains shown, Human engineered IgG2 kappa c-Met antibody; also called D11-27G3; D11-C27G3 IgG2) VH: QVQLVQSGAEVKKPGSSVKVSCKASGYTFTSRYIHWVRQAPGQGLEWMGWIYPVTGDTYYREPFKGRVTITADKSTSTAYMELSSLRSEDTAVYYCARGYGAFYYWGQGTLVTVSS VL: EIVLTQSPGTLSLSPGERATLSCSVSSSISSTNLHWYQQKPGQAPRLLIYGTSRLRSGIPDRFSGSGSGTDFTLTISRLEPEDFAVYYCQQWSSYPYSFGQGTKLEIKR", "A450 nm", 2.38),
    ("D11-S17Y (antibody, human IgG2, kappa, V domains shown, Human engineered IgG2 kappa c-Met antibody; also called D11-S17Y IgG2) VH: QVQLVQSGAEVKKPGSSVKVSCKASGYTFTSRYIHWVRQAPGQGLEWMGWIYPVTGDTYYNEKFKGRVTITADKSTSTAYMELSSLRSEDTAVYYCARGYGAFYYWGQGTLVTVSS VL: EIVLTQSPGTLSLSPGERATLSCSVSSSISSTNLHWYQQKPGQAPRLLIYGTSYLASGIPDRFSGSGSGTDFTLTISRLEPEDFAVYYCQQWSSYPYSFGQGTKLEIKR", "A450 nm", 2.07),
]

Entry source: patent US20100129369A1
